Experimental Endpoint: melting point

- Molecule: "Cc1c(C#N)n(-c2ccc(Cl)cc2)c(=O)n1C"
  Test Result: "138 to 140 °C"
- Molecule: "COc1ccc2[nH]cc(C3CCN(CCCCN4C(=O)c5ccccc5C4=O)CC3)c2c1"
  Test Result: "155 °C"
- Molecule: "COCCN1CCN(S(=O)(=O)c2ccc(-c3cnc4[nH]c(CCc5cc(OC)ccn5)nc4c3)cc2)CC1"
  Test Result: "206 to 208 °C"
- Molecule: "COc1ccccc1N1CCN(CC=CCN)CC1"
  Test Result: "63 to 67 °C"
- Molecule: "CS(=O)(=O)NCCCC(c1cc(F)ccc1F)S(=O)(=O)c1ccc(Cl)cc1 (stereo not given)"
  Test Result: "128 °C"
- Molecule: "CCc1ccc(NC(=S)SC)cc1"
  Test Result: "78 °C"
- Molecule: "Cc1c(C(=O)N[C@H](C)[C@](O)(Cn2cncn2)c2ccc(F)cc2F)cnn1-c1ccc(Cl)cc1"
  Test Result: "154 to 155 °C"
- Molecule: "Brc1ccc2c(c1)/C(=C\\CN1CCCC1)c1ccccc1CO2"
  Test Result: "108 to 109 °C"
- Molecule: "N#CC(NCCc1cccs1)c1ccccc1Cl (stereo not given)"
  Test Result: "40 to 41 °C"
- Molecule: "O=C1Cn2ccnc2-c2c(Br)cccc2N1"
  Test Result: "234 to 235 °C"

---

Residues, ends and D or L forms follow the SMILES beside them. *: point of attachment. Cbz = O=C(OCc1ccccc1)*

- Compound: "COC(=O)C(Cc1ccc(O)cc1)NC(=O)C(CO)NC(=O)C(Cc1c[nH]c2ccccc12)NC(=O)C(CCC(N)=O)NC(=O)OCc1ccccc1 (stereo not drawn) (Cbz-QWSY-OMe; configuration not given here)"
  melting point: "238 to 241 °C"
- Compound: "COCCOc1cc2ncnc(NC3=CC(=O)C(N4CCOCC4)=CC3=O)c2cc1OC"
  melting point: "239 to 243 °C"
- Compound: "CCCCCS(=O)(=O)NC(=O)OCCCc1ccc(OCCOC)cc1Oc1ncc(C(F)(F)F)cc1Cl"
  melting point: "97.5 to 99 °C"
- Compound: "CC(Cc1c[nH]c2ccccc12)(NC(=O)OC1C2CC3CC(C2)CC1C3)C(=O)NC1CCCCC1C(=O)O (stereo not drawn)"
  melting point: "230 to 234 °C"
- Compound: "CN1CCC(N2C(=O)c3ccccc3Oc3ccccc32)CC1"
  melting point: "173 to 174 °C"
- Compound: "Cc1cc2c(-c3ccccc3N)nc(N3CCNCC3)nc2s1"
  melting point: "232 to 236 °C"
- Compound: "Cc1c(COc2cccc3c2CN(C2CCC(=O)NC2=O)C3=O)oc2ccccc12 (stereo not drawn)"
  melting point: "210 to 212 °C"
- Compound: "COc1ccc(N)cc1-c1nc(C)c(-c2cccnc2)[nH]1"
  melting point: "172 to 173 °C"
- Compound: "CCCCCCCCOc1ccc(-c2ccc(NC(=O)N(O)C(CC)CC)cc2)cc1"
  melting point: "151 to 152 °C"
- Compound: "COc1cc(C)nc2nc(S(=O)(=O)Nc3c(Cl)ccc(C)c3Cl)nn12"
  melting point: "239 to 242 °C"
- Compound: "COc1ccc2c(c1)c(C#N)cn2C"
  melting point: "100 to 104 °C"
- Compound: "O=C(c1ccc(Cl)cc1)c1ccc(CSC(F)F)cc1"
  melting point: "34 to 35 °C"
- Compound: "CN1CCC(C2Cc3c(O)cccc3C(=O)N2)CC1 (stereo not drawn)"
  melting point: "216 to 218 °C"
- Compound: "CNC(=O)c1ccc(-n2nc(C(=O)NC3(C(=O)O)C4CC5CC(C4)CC3C5)cc2-c2c(OC)cccc2OC)c2ccccc12 (stereo not drawn)"
  melting point: "170 °C"
- Compound: "CC1=C(c2ccccc2)C(=O)N(C(C)(C)c2cc(Cl)c(F)c(Cl)c2)C1"
  melting point: "164 to 167 °C"
- Compound: "CC(O)CN(C)c1nnc2c3ccc(Cl)cc3c(-c3ccccc3)nn12 (stereo not drawn)"
  melting point: "236 to 238 °C"
- Compound: "CCc1cc(C(=O)c2ccccc2Cl)c(-n2cnnc2CNC(=O)c2cc3ccccc3n2CC(=O)O)s1"
  melting point: "218 to 220 °C"
- Compound: "Cc1nc(OC(F)F)c(C#N)c(N2CCc3ccccc3CC2)n1"
  melting point: "143 °C"
